The measured values listed here are drawn from the supplement of paper PMC7806825.

- System: McpC ligand-binding domain (Salmonella Typhimurium SL1344)
- test.protocol: protein melting temperature (Tm) in presence of compound (degrees C); higher = more thermal stabilisation (possible ligand binding)
- conditions.used: Biolog plate: PM02A; compound stock concentration: 10-20 mM, 2 uL in 10 uL reaction
For each of the compounds below, state its protein melting temperature.
One number for each entry.

Answered cases to consult:
>  <compound>
OC[C@H]1O[C@@H](Oc2ccc(O)cc2)[C@H](O)[C@@H](O)[C@@H]1O

>  <protein melting temperature>
43.7

$$$$
>  <compound>
OC[C@@H](O)[C@H](O)[C@@H](O)CO

>  <protein melting temperature>
44.3

$$$$
>  <compound>
CCCC(=O)C(=O)O

>  <protein melting temperature>
44.3

$$$$
>  <compound>
O=C1O[C@H](CO)[C@@H](O)[C@H]1O

>  <protein melting temperature>
44.4

$$$$
>  <compound>
OC[C@H]1O[C@@H]2O[C@H]3[C@H](O)[C@@H](O)[C@@H](O[C@H]4[C@H](O)[C@@H](O)[C@@H](O[C@H]5[C@H](O)[C@@H](O)[C@@H](O[C@H]6[C@H](O)[C@@H](O)[C@@H](O[C@H]7[C@H](O)[C@@H](O)[C@@H](O[C@H]8[C@H](O)[C@@H](O)[C@@H](O[C@H]1[C@H](O)[C@H]2O)O[C@@H]8CO)O[C@@H]7CO)O[C@@H]6CO)O[C@@H]5CO)O[C@@H]4CO)O[C@@H]3CO

>  <protein melting temperature>
45.4

$$$$

Would you be so kind as to report protein melting temperature for each listed record?
1. CO[C@@H]1O[C@H](C(=O)O)[C@@H](O)[C@H](O)[C@H]1O
2. O=C(O)c1ccc(O)cc1 [4-Hydroxybenzoic acid]

Resp:
44.1
43.3

---

- System: McpC ligand-binding domain (Salmonella Typhimurium SL1344)
- test.protocol: protein melting temperature (Tm) in presence of compound (degrees C); higher = more thermal stabilisation (possible ligand binding)
- conditions.used: Biolog plate: PM04A; compound stock concentration: 10-20 mM, 2 uL in 10 uL reaction
Hi there, I'd appreciate the recorded protein melting temperature for every entry that follows.
Give bare numbers.

Below, 3 compounds whose answers are already recorded.
>  <compound>
O=PO

>  <protein melting temperature>
44.1

$$$$
>  <compound>
Nc1ncnc2c1ncn2[C@@H]1O[C@H](CO)[C@@H](OP(=O)(O)O)[C@H]1O [Adenosine 3`-Monophosphate]

>  <protein melting temperature>
44.2

$$$$
>  <compound>
N[C@@H](CS)C(=O)NCC(=O)O

>  <protein melting temperature>
42.9

$$$$

Please go through the list and note protein melting temperature for each compound.
1. O=S1(=O)CCCC1
2. O=P(O)(O)CP(=O)(O)O

Resp:
1. 44.3
2. 44

Go through the list and state protein melting temperature for each entry.
1. O=P(O)(O)OC(CO)CO [b-Glycerol Phosphate]
2. O=S(=O)(O)CCO [2-Hydroxyethane Sulfonic acid]
3. O=C(O)C(CO)OP(=O)(O)O (stereo not given)
4. O=P(O)(O)OC[C@H](O)CO (racemic) [DL-a-Glycerol Phosphate]

Resp:
44.3
44.6
44.1
44.4

Would you mind listing protein melting temperature for each of the following compounds?
1. CSCC[C@H](N)C(=O)O
2. Nc1nc2c(ncn2[C@@H]2O[C@H](CO)[C@@H](OP(=O)(O)O)[C@H]2O)c(=O)[nH]1 [Guanosine 3`-Monophosphate]
3. Nc1nc2c(ncn2[C@@H]2O[C@H](COP(=O)(O)O)[C@@H](O)[C@H]2O)c(=O)[nH]1 [Guanosine 5`-Monophosphate]
4. NC(N)=S
5. NC(=O)OP(=O)(O)O [Carbamyl Phosphate]

Resp:
1. 43.9
2. 43.9
3. 43.9
4. 44.6
5. 44.7

Give me protein melting temperature for each of these compounds, listed below.
1. O=c1ccn([C@@H]2O[C@H](CO)[C@@H](OP(=O)(O)O)[C@H]2O)c(=O)[nH]1 [Uridine 3`-Monophosphate]
2. CSCC[C@@H](N)C(=O)O
3. N[C@@H](CSCSC[C@H](N)C(=O)O)C(=O)O
4. O=C(O)CP(=O)(O)O
5. Nc1ccn([C@@H]2O[C@H](CO)[C@@H](O)[C@H]2OP(=O)(O)O)c(=O)n1 [Cytidine 2`-Monophosphate]

Resp:
[43.5, 43.7, 44.6, 44, 43.7]

Value sought: protein melting temperature, system McpC ligand-binding domain (Salmonella Typhimurium SL1344), item "O=C(O)COP(=O)(O)O" . Result: 43.5

---

- Test system: McpC ligand-binding domain (Salmonella Typhimurium SL1344)
- test.protocol: protein melting temperature (Tm) in presence of compound (degrees C); higher = more thermal stabilisation (possible ligand binding)
- conditions.used: Biolog plate: PM05; compound stock concentration: 10-20 mM, 2 uL in 10 uL reaction
Kindly state protein melting temperature for each of the entries shown.
Numbers only.

>  <compound>
O=C(O)c1cc(=O)[nH]c(=O)[nH]1

>  <protein melting temperature>
43

$$$$

Provide protein melting temperature values for the following items, in order.
1. NC(=O)C[C@H](N)C(=O)O
2. NCC(=O)CCC(=O)O
3. CC[C@H](C)[C@H](N)C(=O)O

Resp:
1. 44.5
2. 43.8
3. 44.7

---

- Tested on: McpC ligand-binding domain (Salmonella Typhimurium SL1344)
- test.protocol: protein melting temperature (Tm) in presence of compound (degrees C); higher = more thermal stabilisation (possible ligand binding)
- conditions.used: Biolog plate: PM01; compound stock concentration: 10-20 mM, 2 uL in 10 uL reaction
property: protein melting temperature
Numbers only.

>  <compound>
OCC1(O)OC[C@@H](O)[C@@H](O)[C@H]1O (stereo partly drawn)

>  <tested.system>
McpC ligand-binding domain (Salmonella Typhimurium SL1344)

>  <property>
protein melting temperature

>  <test.value>
45

$$$$

Here are 5 compounds. What values of protein melting temperature were reported for them?
1. O=C(O)C[C@@H](O)C(=O)O
2. O=C(O)Cc1ccc(O)cc1 [p-Hydroxyphenyl Acetic acid]
3. C[C@H](O)[C@@H](O)[C@@H](O)[C@H](O)C=O
4. OC[C@H]1O[C@H](O[C@H]2[C@H](O)[C@@H](O)[C@@H](O[C@H]3[C@H](O)[C@@H](O)[C@@H](O)O[C@@H]3CO)O[C@@H]2CO)[C@H](O)[C@@H](O)[C@@H]1O
5. OC[C@H]1O[C@@H](O[C@@H]2[C@@H](CO)OC(O)(CO)[C@H]2O)[C@H](O)[C@@H](O)[C@H]1O (mixture of isomers)

Resp:
[43.6, 45.3, 44.7, 44, 44.9]

---

- System: McpC ligand-binding domain (Salmonella Typhimurium SL1344)
- test.protocol: protein melting temperature (Tm) in presence of compound (degrees C); higher = more thermal stabilisation (possible ligand binding)
- conditions.used: Biolog plate: PM02A; compound stock concentration: 10-20 mM, 2 uL in 10 uL reaction
property: protein melting temperature
Give bare numbers.

These solved cases illustrate the format of a correct answer.
>  <compound>
CCCCCC(=O)O [Caproic acid]

>  <test.value>
43.3

$$$$
>  <compound>
C[N+](C)(C)CC(O)CC(=O)[O-] (racemic) [D,L-Carnitine]

>  <test.value>
44.4

$$$$
>  <compound>
O=C(O)[C@H]1O[C@@H](O)[C@H](O)[C@@H](O)[C@H]1O [Pectin]

>  <test.value>
45

$$$$
>  <compound>
NC(=O)CCC(=O)O [Succinamic acid]

>  <test.value>
43.6

$$$$
>  <compound>
NCCC[C@H](N)C(=O)O [L-Ornithine]

>  <test.value>
44.4

$$$$

Can you give me protein melting temperature for all of these, one by one?
1. O=C(CO)[C@@H](O)[C@@H](O)[C@H](O)CO [D-Tagatose]
2. CC(C)[C@H](N)C(=O)O [L-Valine]

Resp:
1: 44; 2: 44.5

Could you report protein melting temperature for every entry in the following list?
1. OC[C@@H](O)C(O)[C@H](O)CO [D-Arabitol]
2. N[C@@H](Cc1ccccc1)C(=O)O [L-Phenylalanine]
3. CC(=O)N[C@@H](CO)[C@@H](O)[C@H](O)[C@H](O)CO [N-Acetyl-D-Glucosaminitol]
4. O=C[C@@H](O)[C@H](O[C@@H]1O[C@H](CO)[C@H](O)[C@H](O)[C@H]1O)[C@H](O)CO [3-O-b-D-Galactopyranosyl-D-Arabinose]
5. N[C@@H](CCO)C(=O)O [L-Homoserine]
6. O=C(CO)[C@@H](O)[C@H](O)[C@@H](O)C(=O)O [5-Keto-D-Gluconic acid]

Resp:
1. 44.4
2. 44.5
3. 44.1
4. 44.5
5. 44.7
6. 43.9

---

Would you kindly list protein melting temperature for each of these compounds?
- Test system: McpC ligand-binding domain (Salmonella Typhimurium SL1344)
- test.protocol: protein melting temperature (Tm) in presence of compound (degrees C); higher = more thermal stabilisation (possible ligand binding)
- conditions.used: Biolog plate: PM05; compound stock concentration: 10-20 mM, 2 uL in 10 uL reaction
Give bare numbers.

>  <compound>
Nc1nc2c(ncn2[C@@H]2O[C@H](CO)[C@@H](O)[C@H]2O)c(=O)[nH]1

>  <protein melting temperature>
44.5

$$$$

Below are some compounds; for each one, tell me its protein melting temperature.
1. NCC(=O)O
2. N[C@H](CC(=O)O)C(=O)O
3. NC(=O)c1[nH]cnc1N [(5) 4-Amino-Imidazole-4(5)-Carboxamide]

Resp:
43.9
44.4
43.7
